system: microorganisms; test: Targeting peptide binding to target microorganisms (Tables 3, 10, 12); details: microorganism(s) the targeting peptide binds; binding in aqueous buffers varied with peptide solubility, preferably 1x PBS
Square brackets hold non-standard residues; d marks the D form. Ends that are not written are not given here. Aib = CC(C)(N)C(=O)O
measure_name: Target(s)

1) PF-785 (MRPQHSPAGKAFVVKKITHEQS; Peptide with targeting and/or antimicrobial activity): Mycobacteria spp.
2) PF-486 (MQKEGEEDY; Peptide with targeting and/or antimicrobial activity): S. mutans
3) PF-282 (QNNDTSAWCGSAHKNGNS; Peptide with targeting and/or antimicrobial activity): S. mutans
4) PF-720 (SLDMGK; Peptide with targeting and/or antimicrobial activity): S. mutans
5) PF-163 (TSWLRAAERQEIGEPTKTFGEKTTSL; Peptide with targeting and/or antimicrobial activity): S. epidermidis

In: Please report Target(s) for the following substance: PF-284 (MRYITYSLIPRLLSKKVIHQQ; Peptide with targeting and/or antimicrobial activity)
Out: C. difficile

In: Indicate the recorded Target(s) value for this substance: PF-158 (VRLESRPADLPE; Peptide with targeting and/or antimicrobial activity)
Out: S. epidermidis

In: Answer with reported Target(s) of PF-777 (PGADGKLAEASAAIARLVRS; Peptide with targeting and/or antimicrobial activity)
Out: Mycobacteria spp.

In: Quick one: give measured Target(s) for PF-796 (YTQSNIPTAYALMLSNKDSI; Peptide with targeting and/or antimicrobial activity)
Out: S. mutans

In: Annotate the substance PF-329 (IGILFDKSVRKY; Peptide with targeting and/or antimicrobial activity) with its measured Target(s).
Out: S. epidermidis

In: Identify measured Target(s) corresponding to PF-494 (FTEPLRPLQAKGQIISIKPSTSSS; Peptide with targeting and/or antimicrobial activity)
Out: S. mutans

In: Recall and state the measured Target(s) for PF-678 (RDRRWTRRDMYDWLESARV; Peptide with targeting and/or antimicrobial activity) .
Out: Mycobacteria spp

In: Indicate its recorded Target(s); the substance in question is PF-675 (EIIPISPTRRCEMHTMSSAEYRGL; Peptide with targeting and/or antimicrobial activity)
Out: Mycobacteria spp

In: // Input: PF-502 (NKGKQMQDQTGKQPIVDNG; Peptide with targeting and/or antimicrobial activity) . Output its Target(s) only.
Out: S. mutans

In: Return Target(s) for the following substance: PF-780 (AVYDALVALAAAEHRAELATRDARAKDTYEKIGVHVVVAA; Peptide with targeting and/or antimicrobial activity)
Out: Mycobacteria spp.

In: Provide Target(s) value for the following substance: PF-782 (TGPRRGIDLTSNRALSEVLDEGLELNSRK; Peptide with targeting and/or antimicrobial activity)
Out: Mycobacteria spp.

In: Consider the substance PF-793 (YTQ[Aib]NNASAYAMLLTNKDTVP; ends and bridges not checked) . State its measured Target(s).
Out: S. mutans

In: Please look at this substance and report its Target(s): PF-653 (chain 1 QSVHPLPAETPVADVI; chain 2 QSVHPLPAETPVADVI; Peptide with targeting and/or antimicrobial activity)
Out: Mycobacteria spp

In: Supply Target(s) value. Item: PF-311 (IDAVTKKKTTCMIRAPTKIPIAHTDN; Peptide with targeting and/or antimicrobial activity)
Out: C. difficile

In: Output measured Target(s) for this item: PF-697 (RADARAK; Peptide with targeting and/or antimicrobial activity)
Out: Mycobacteria spp

In: Tell me Target(s) reported for PF-323 (ARESIEKSHVPVDATIVGVVDSFEVFDE; Peptide with targeting and/or antimicrobial activity)
Out: S. mutans

* * *

tested on: microorganisms; assay: Targeting peptide binding to target microorganisms (Tables 3, 10, 12); details: microorganism(s) the targeting peptide binds; binding in aqueous buffers that varied with peptide solubility, preferably 1x PBS
measure_name: Target(s)

1) PF-055 (GHVFNGNNKRNL; Peptide with targeting and/or antimicrobial activity): S. mutans
2) PF-047 (NQEPSLQQDKEQKDNKG; Peptide with targeting and/or antimicrobial activity): S. mutans

* * *

test system: microorganisms; assay: Morphology, biofilm and growth disrupting peptides (Table 5); format: cell-based; design: key: A: Peptide aggregates; B: Less hyphal formation; Clumps; Diffuse clumps and small polyps; F: Diffuse growth; H: Thin; I: Growth inhibition; Microcolony formation; Rippled; Small polyps; Thick; W: Halo formation on top, microlonies on bottom; settings: S. epidermidis
Ends that are not written are not given here.
measure_name: Organism, effect

Consider the reported Organism, effect for these substances:
1. PF-668 (chain 1 TNAESMALAFRGRVHMSVNIAGLT; chain 2 TNAESMALAFRGRVHMSVNIAGLT; Peptide with targeting and/or antimicrobial activity): S. epidermidis (M)
2. PF-543: peptide having multiple activities (NILFGIIGFVVAMTAAVIVTAISIAK; Peptide with targeting and/or antimicrobial activity): S. epidermidis (D)
3. PF-614: peptide having multiple activities (chain 1 GLDIYA; chain 2 GLDIYA; Peptide with targeting and/or antimicrobial activity): S. epidermidis (M)
4. PF-526: peptide having multiple activities (VLLLFIFQPFQKQLL-NH2): S. epidermidis (C)
5. PF-664: peptide having multiple activities (chain 1 DQLCVEYPARVSTG; chain 2 DQLCVEYPARVSTG; Peptide with targeting and/or antimicrobial activity): S. epidermidis (M)
6. PF-474: peptide having multiple activities (MHRNLVLVKMEPIPHIMIIANQIGIIIEKA; Peptide with targeting and/or antimicrobial activity): S. epidermidis (C)

In: Let me know recorded Organism, effect for PF-632: peptide having multiple activities (chain 1 TTIQGVASLEKHGFRYTIIYPTRI; chain 2 TTIQGVASLEKHGFRYTIIYPTRI; Peptide with targeting and/or antimicrobial activity) , thanks.
Out: S. epidermidis (D)

In: # return recorded Organism, effect for entry PF-518: peptide having multiple activities (SFYSKYSRYIDNLAGAIFLFF; Peptide with targeting and/or antimicrobial activity)
Out: S. epidermidis (C)

In: Return Organism, effect (reported value) for this substance: PF-454: peptide having multiple activities (MSVFVPVTNIFMFIMSPIFNVNLLHFKVYI; Peptide with targeting and/or antimicrobial activity)
Out: S. epidermidis (C)

In: Please give measured Organism, effect of the following entry: PF-578: peptide having multiple activities (QKANLRIGFTYTSDSNVCNLTFALLGSK; Peptide with targeting and/or antimicrobial activity)
Out: S. epidermidis (D)

* * *

test system: microorganisms; test: Targeting peptide binding to target microorganisms (Tables 3, 10, 12); details: microorganism(s) the targeting peptide binds; binding in aqueous buffers varied with peptide solubility, preferably 1x PBS
measure_name: Target(s)

Answered cases to consult:
1. PF-669 (RADRIESYPADGDRVITLWRNPYR; Peptide with targeting and/or antimicrobial activity): Mycobacteria spp
2. PF-649 (chain 1 CPRYPFVDVGPAGPWRARWRVGS; chain 2 CPRYPFVDVGPAGPWRARWRVGS; Peptide with targeting and/or antimicrobial activity): Mycobacteria spp
3. PF-645 (chain 1 SNSVQQG; chain 2 SNSVQQG; Peptide with targeting and/or antimicrobial activity): Mycobacteria spp
4. PF-699 (GRAGVKCRRPTGR; Peptide with targeting and/or antimicrobial activity): Mycobacteria spp
5. PF-268 (EVLLSDLRPDIFSET; Peptide with targeting and/or antimicrobial activity): S. mutans

In: # return recorded Target(s) for entry PF-794 (NLYFENQGN; Peptide with targeting and/or antimicrobial activity)
Out: S. mutans

In: Retrieve Target(s) measured for PF-304 (LVKDTSDIKNDLNNIEIVTSKNSNDIAKLKSVK; Peptide with targeting and/or antimicrobial activity) and print it.
Out: S. mutans

In: For the substance PF-352 (RVKKIG; Peptide with targeting and/or antimicrobial activity) , give its reported Target(s).
Out: C. jeikeium

In: Please look at this substance and report its Target(s): PF-552: peptide having multiple activities (ELDKADAALGPAKNLAPLDVINRS; Peptide with targeting and/or antimicrobial activity)
Out: S. pneumoniae

In: Using the record for PF-696 (IRSGISAAYARPLR; Peptide with targeting and/or antimicrobial activity) , state its measured Target(s).
Out: Mycobacteria spp

In: Return reported Target(s). Input substance: PF-554: peptide having multiple activities (AKNFLTRTAEEIGEQAVREGNINGP; Peptide with targeting and/or antimicrobial activity)
Out: S. pneumoniae

In: Note down Target(s) recorded for PF-314 (ECLKKAIKSKALNKAFKIDVPDEVYDNLLMELEEYEK; Peptide with targeting and/or antimicrobial activity)
Out: S. mutans

In: Using the record for PF-508 (VSTFGKVVKVVDEK; Peptide with targeting and/or antimicrobial activity) , state its measured Target(s).
Out: S. mutans

In: Identify the reported Target(s) for the following entry. PF-276: peptide having multiple activities (chain 1 LDLALSTNSLNLEGFSF; chain 2 LDLALSTNSLNLEGFSF; Peptide with targeting and/or antimicrobial activity)
Out: S. epidermidis
